- target_under_test: FXR (Homo sapiens (Human), UniProt Q96RI1)
- Sequence (Q96RI1 262-486): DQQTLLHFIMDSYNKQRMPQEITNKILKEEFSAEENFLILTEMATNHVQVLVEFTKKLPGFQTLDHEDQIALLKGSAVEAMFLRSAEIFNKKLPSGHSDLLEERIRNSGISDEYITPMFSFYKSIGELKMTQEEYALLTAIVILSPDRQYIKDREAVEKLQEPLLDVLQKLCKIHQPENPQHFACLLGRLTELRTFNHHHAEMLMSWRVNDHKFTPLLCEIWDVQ
- protocol_text: FXR EC50 (FXR agonist potency reported with each Example)
- Format: cell-based
Output 1 for records whose EC50 is lower than 100 nM, -1 for records at or above 100 nM.

CCn1cc(-c2cccc(N(CC34CCC(c5nc(C6CC6)no5)(CC3)CC4)C(=O)C34CC(F)(C3)C4)c2)oc1=O [Example 80] | -1
CCNC(=O)N(CC12CCC(c3nc(C4CC4)no3)(CC1)CC2)c1cccc(-c2nc(C3CC3)no2)c1 [Example 95] | -1
O=C(N(CC12CCC(c3nc(C4CC4)no3)(CC1)CC2)c1cccc(-c2noc(C(F)F)n2)c1)C12CC(F)(C1)C2 [Example 105] | 1
CC(C)(C)c1nc(C23CCC(CN(C(=O)C45CC(F)(C4)C5)c4cc(-c5cnn(C(F)F)c5)ccn4)(CC2)CC3)no1 [Example 212] | 1
CC(F)(F)c1nc(-c2cccc(N(CC34CCC(c5nc(C6CC6)no5)(CC3)CC4)C(=O)C34CC(F)(C3)C4)c2)no1 [Example 112] | 1

Query string: A record lists O=C(C1CCC(F)(F)C1)N(CC12CCC(c3nc(C4CC4)no3)(CC1)CC2)c1cccc(-c2nc(C3CC3)no2)c1 (stereo not shown) [Example 11] . Is its EC50 below 100 nM?
Result string: -1

Query string: A record lists O=C(C1CC(O)(C(F)(F)F)C1)N(CC12CCC(c3nc(C4CC4)no3)(CC1)CC2)c1cccc(-c2cnc(C3CC3)o2)c1 (stereo not shown) [Example 21] . Is its EC50 below 100 nM?
Result string: 1

Query string: A record lists Cn1nc(C23CCC(CN(C(=O)C4CC(F)(F)C4)c4cccc(-c5nc(C6CC6)no5)c4)(CC2)CC3)cc1C1CC1 [Example 125] . Is its EC50 below 100 nM?
Result string: -1

Query string: A record lists CC1(c2nc(-c3cccc(N(CC45CCC(c6noc(C(F)F)n6)(CC4)CC5)C(=O)C45CC(F)(C4)C5)c3)no2)CC1 [Example 178] . Is its EC50 below 100 nM?
Result string: 1

Query string: A record lists O=C(N(CC12CCC(c3noc(C4CC4)n3)(CC1)CC2)c1cccc(-c2nc(C3CC3)no2)c1)C12CC(F)(C1)C2 [Example 116] . Is its EC50 below 100 nM?
Result string: -1

Query string: A record lists O=C(C1CC(C(F)F)C1)N(CC12CCC(c3nnc(C4CC4)o3)(CC1)CC2)c1cccc(-c2nnc(C3CC3)o2)c1 (stereo not shown) [Example 134] . Is its EC50 below 100 nM?
Result string: -1

Query string: A record lists CN(C)[C@H]1CCN(C(=O)N(CC23CCC(c4nc(C5CC5)no4)(CC2)CC3)c2cccc(-c3nc(C4CC4)no3)c2)C1 [Example 93] . Is its EC50 below 100 nM?
Result string: -1

###

Recorded pEC50, one value per entry.
- target_under_test: FXR (Homo sapiens (Human), UniProt Q96RI1)
- protocol_text: transient human FXR/Gal4-luciferase reporter assay
- Format: cell-based
- condition: Gal4-hFXR fusion construct, HEK293 reporter cells; response relative to 8 μM GW-4064
# pEC50 is unitless: minus log10 of the molar concentration; print number only

A selection of reference data follows.
CC(C)Oc1ccc(-c2cc(N(CC34CCC(c5nc(C6CC6)no5)(CC3)CC4)C(=O)OC(C)(C)C(F)(F)F)ncc2F)cc1 [Example 617] | 7.09
COc1cnc(-c2cccc(N(CC34CCC(c5nc(C6CC6)no5)(CC3)CC4)C(=O)C34CC(F)(C3)C4)c2)nc1 [Example 334] | 7.11
COc1ccc(-c2cccc(N(CC34CCC(c5nc(C6CC6)no5)(CC3)CC4)C(=O)C34CC(F)(C3)C4)c2)cc1C#N [Example 296] | 6.53

From here, focus on the item given below.
Query string: Dear colleague, please send me the reported pEC50 for Cc1cnc(-c2cccc(N(CC34CCC(c5nc(C(C)C)no5)(CC3)CC4)C(=O)C34CC(F)(C3)C4)c2)nc1 [Example 393] when you can.
Result string: 7.31

###

Recorded EC50, one value per entry.
- target_under_test: FXR (Homo sapiens (Human))
- protocol_text: transient human FXR/Gal4-luciferase reporter assay
- Format: cell-based
Number only, in nM; omit the unit.

A selection of reference data follows.
CCOc1ncc(-c2cccc(N(CC34CCC(c5nc(C(C)(C)C)no5)(CC3)CC4)C(=O)C3(C)COC3)c2)cn1 | 1580
CCc1cnc(-c2cccc(N(CC34CCC(c5ccc(C(F)(F)F)cn5)(CC3)CC4)C(=O)C34CC(F)(C3)C4)c2)nc1 | 539

Query string: Dear colleague, please send me the reported EC50 for CC(C)(O)c1ccc(-c2cccc(N(CC34CCC(c5noc(C(C)(C)F)n5)(CC3)CC4)C(=O)NCC3(CO)CCOCC3)c2)cc1 when you can.
Result string: 581

Query string: Dear colleague, please send me the reported EC50 for Cc1nc2ccc(-c3cccc(N(CC45CCC(c6nc(C7CC7)no6)(CC4)OC5)C(=O)C4CCC(F)(F)C4)c3)cc2s1 (stereo not drawn) when you can.
Result string: 432

Query string: Dear colleague, please send me the reported EC50 for CCOc1ccc(-c2cncc(N(CC34CCC(c5noc(C(C)(C)C)n5)(CC3)CC4)C(=O)C34CC(F)(C3)C4)c2)cc1 when you can.
Result string: 322

Query string: Dear colleague, please send me the reported EC50 for Cc1nc2ccc(-c3cccc(N(CC45CCC(c6nc(C(F)F)no6)(CC4)CC5)C(=O)C45CC(F)(C4)C5)c3)cc2s1 when you can.
Result string: 135

###

Recorded pEC50, one value per entry.
- target_under_test: UniProt Q96RI1
- protocol_text: transient human FXR/Gal4-luciferase reporter assay
- Format: cell-based
- condition: Gal4-hFXR fusion construct, HEK293 reporter cells; response relative to 8 μM GW-4064
# pEC50 is unitless: minus log10 of the molar concentration; print number only

A selection of reference data follows.
CC(C)(F)c1nc(C23CCC(CN(c4cccc(C5=CCOCC5)c4)C(=O)[C@H]4C[C@](O)(C(F)(F)F)C4)(CC2)CC3)no1 | 6.40
Cc1nc2ccc(-c3ccnc(N(CC45CCC(c6nc(C7CC7)no6)(CC4)CC5)C(=O)C45CC(F)(C4)C5)c3)cc2s1 | 7.44
CCOc1ncc(-c2cccc(N(CC34CCC(c5nc(C6CC6)no5)(CC3)CC4)C(=O)C34CC(F)(C3)C4)c2)cn1 | 7.32
CC(C)Oc1ccc(-c2cc(N(CC34CCC(c5noc(C6(F)CC6)n5)(CC3)CC4)C(=O)NC(C)(C)C)ccc2F)cc1 | 7.44
Cn1nc(C2CC2)cc1C12CCC(CN(C(=O)C34CC(F)(C3)C4)c3cc(-c4ccc(OC(F)F)cc4)ccn3)(CC1)CC2 | 6.94

From here, focus on the item given below.
Query string: Dear colleague, please send me the reported pEC50 for COc1ccc(-c2cccc(N(CC34CCC(c5cnc(C(F)(F)F)nc5)(CC3)OC4)C(=O)C34CC(F)(C3)C4)c2)cc1 when you can.
Result string: 6.10

###

- target_under_test: FXR (Homo sapiens (Human))
- protocol_text: transient human FXR/Gal4-luciferase reporter assay
- Format: cell-based
observed_property: EC50 (nM)
Number only, in nM; omit the unit.

O=C(N(CC12CCC(c3ccc(C(F)(F)F)cn3)(CC1)CC2)c1cccc(-c2cnc(C(F)(F)F)nc2)c1)C12CC(F)(C1)C2 | 1630
CC(C)(O)c1ccc(-c2cccc(N(CC34CCC(c5noc(C(C)(C)F)n5)(CC3)CC4)C(=O)NCC3(O)CC3)c2)cc1 | 509
CC(C)(C)c1nc(C23CCC(CN(C(=O)C45CC(F)(C4)C5)c4cncc(-c5ccc6[nH]c(=O)oc6c5)c4)(CC2)CC3)no1 | 367
CC(C)(C)c1nc(C23CCC(CN(C(=O)C45CC(F)(C4)C5)c4cncc(-c5ccc(OC(F)F)cc5)c4)(CC2)CC3)no1 | 255
Cc1nc2ccc(-c3ccnc(N(CC45CCC(c6noc(C(C)(C)C)n6)(CC4)CC5)C(=O)C45CC(F)(C4)C5)c3)cc2s1 | 67

Query string: Dear colleague, please send me the reported EC50 for COc1cnc(-c2cccc(N(CC34CCC(c5ccc(C(F)(F)F)cn5)(CC3)CC4)C(=O)C34CC(F)(C3)C4)c2)nc1 when you can.
Result string: 810

Query string: Dear colleague, please send me the reported EC50 for CC(C)(C)c1nc(C23CCC(CN(C(=O)C45CC(F)(C4)C5)c4cc(-c5ccc6[nH]c(=O)oc6c5)ccn4)(CC2)CC3)no1 when you can.
Result string: 71

Query string: Dear colleague, please send me the reported EC50 for Cn1nc(C2CC2)cc1C12CCC(CN(C(=O)C34CC(F)(C3)C4)c3cc(-c4ccc(NS(C)(=O)=O)cc4)ccn3)(CC1)CC2 when you can.
Result string: 251

Query string: Dear colleague, please send me the reported EC50 for CC(C)(O)c1ccc(-c2cccc(N(CC34CCC(c5noc(C(C)(C)F)n5)(CC3)CC4)C(=O)NCCC3(O)CCCC3)c2)cc1 when you can.
Result string: 472

Query string: Dear colleague, please send me the reported EC50 for CCOc1cnc(-c2cccc(N(CC34CCC(c5ccc(C(F)(F)F)cn5)(CC3)CC4)C(=O)C34CC(F)(C3)C4)c2)nc1 when you can.
Result string: 524

Query string: Dear colleague, please send me the reported EC50 for O=C(N(CC12CCC(c3noc(C(F)F)n3)(CC1)CC2)c1cccc(-c2cnc(C(F)(F)F)nc2)c1)C12CC(F)(C1)C2 when you can.
Result string: 654
